Target: UniProt:P30530
Sequence (P30530 26-894): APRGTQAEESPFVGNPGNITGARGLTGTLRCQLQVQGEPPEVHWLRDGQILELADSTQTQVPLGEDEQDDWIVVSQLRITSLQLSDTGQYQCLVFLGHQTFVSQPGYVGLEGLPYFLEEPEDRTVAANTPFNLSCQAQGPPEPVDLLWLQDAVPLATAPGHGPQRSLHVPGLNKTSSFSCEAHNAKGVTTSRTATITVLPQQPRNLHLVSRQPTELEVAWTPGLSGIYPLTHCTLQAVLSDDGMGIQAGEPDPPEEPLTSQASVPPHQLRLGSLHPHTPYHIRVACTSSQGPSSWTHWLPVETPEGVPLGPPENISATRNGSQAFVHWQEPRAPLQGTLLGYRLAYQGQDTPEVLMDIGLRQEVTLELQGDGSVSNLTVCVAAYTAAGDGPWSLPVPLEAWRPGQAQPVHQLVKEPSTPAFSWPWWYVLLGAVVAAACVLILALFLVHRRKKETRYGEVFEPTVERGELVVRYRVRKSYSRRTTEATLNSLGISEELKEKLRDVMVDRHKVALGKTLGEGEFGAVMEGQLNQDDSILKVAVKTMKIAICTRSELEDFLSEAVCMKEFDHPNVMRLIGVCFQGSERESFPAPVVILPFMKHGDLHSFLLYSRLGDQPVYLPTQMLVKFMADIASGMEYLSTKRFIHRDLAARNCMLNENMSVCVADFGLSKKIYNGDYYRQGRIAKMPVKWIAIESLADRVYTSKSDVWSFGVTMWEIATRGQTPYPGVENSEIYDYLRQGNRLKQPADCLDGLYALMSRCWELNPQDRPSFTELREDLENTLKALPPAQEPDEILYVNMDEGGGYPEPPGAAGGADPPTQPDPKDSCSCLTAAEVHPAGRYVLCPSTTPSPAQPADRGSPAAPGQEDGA
Experiment: HTRF KinEASE-TK biochemical potency assay, AXL
Parameters: purchased Invitrogen
Details: 5 nM AXL, 700 μM ATP, 800 nM TK Substrate-biotin
parameter: IC50

molecule | target_entity | parameter | result
CC(C)(O)c1ccc(-c2n[nH]c3ncc(-c4ccc5c(c4)CCC(N4CCCC4)CC5)cc23)cc1Cl (stereo not drawn) | UniProt:P30530 | IC50 | < 100 nM
c1cc2c(cc1-c1cnc3[nH]nc(-c4ccc(N5C[C@H]6C[C@@H]5CO6)cc4)c3c1)CC[C@@H](N1C3COCC1C3)CC2 | UniProt:P30530 | IC50 | < 100 nM
COC1CCN(C(=O)c2ccc(-c3n[nH]c4ncc(-c5ccc6c(c5)CC[C@@H](N5CCCC5)CC6)cc34)cc2Cl)CC1 | UniProt:P30530 | IC50 | < 100 nM
NC(=O)c1ccc(-c2n[nH]c3ncc(-c4ccc5c(c4)CCC(N4CCCC4)CC5)cc23)cc1C(F)(F)F (stereo not drawn) | UniProt:P30530 | IC50 | < 100 nM
CC1(N2CCC[C@H]2CO)CCc2ccc(-c3cnc4[nH]nc(-c5ccc(S(=O)(=O)C6CC6)cc5)c4c3)cc2CC1 (stereo partly drawn) | UniProt:P30530 | IC50 | < 100 nM

Request: Look at this molecule and give its reported IC50. CS(=O)(=O)c1ccc(-c2n[nH]c3ncc(-c4ccc5c(c4)CCN(C4CCCC4)CC5)cc23)cc1F
Response: < 100 nM

Request: Now give it for CC(C)S(=O)(=O)c1ccc(-c2n[nH]c3ncc(-c4ccc5c(c4)CCC(C)(N4CCC[C@H]4C)CC5)cc23)cc1 (stereo partly drawn) too.
Response: < 100 nM

Request: Now give it for NC(=O)c1ccc(-c2n[nH]c3ncc(-c4ccc5c(c4)CCC(N4CCCC4)CC5)cc23)cc1 (stereo not drawn) too.
Response: < 100 nM

Request: Now give it for NS(=O)(=O)c1ccc(-c2n[nH]c3ncc(-c4ccc5c(c4)CCN(C4CCCC4)CC5)cc23)cc1Cl too.
Response: < 100 nM

---

The entries below are paired with their reported IC50.
Target: Axl (Homo sapiens)
Test: Axl NanoBRET intracellular kinase assay (intracellular binding, Cell Binding)
Parameters: host or cells: HEK-293
Conditions: HEK-293 cells transfected with Axl-NanoLuc fusion vector; 0.35 μM K-5 NanoBRET tracer

Some molecules with known IC50 results, for comparison:
molecule | IC50
C[C@@H]1CCCN1C1CCc2ccc(-c3cnc4[nH]nc(-c5cnc(C(C)(C)O)c(Cl)c5)c4c3)cc2CC1 (some centres unmarked) [Example 65] | < 100 nM
Cc1cc(-c2n[nH]c3ncc(-c4ccc5c(c4)CCC(N4CCCC4)CC5)cc23)cc(F)c1C(N)=O (centres unmarked) [Example 79] | < 100 nM
CC1(N2CCC[C@H]2CO)CCc2ccc(-c3cnc4[nH]nc(-c5ccc(S(=O)(=O)C6CC6)cc5)c4c3)cc2CC1 (some centres unmarked) [Example 4] | < 100 nM
CC1(N2CCOCC2)CCc2ccc(-c3cnc4[nH]nc(-c5ccc(S(=O)(=O)C6CC6)cc5)c4c3)cc2CC1 (centres unmarked) [Example 2] | > 1000 nM

Request: Look at this molecule and give its reported IC50. CCC1(N2CCC[C@H]2C)CCc2ccc(-c3cnc4[nH]nc(-c5ccc(S(=O)(=O)C6CC6)cc5)c4c3)cc2CC1 (some centres unmarked) [Example 6]
Response: 100 to 1000 nM

Request: Now give it for Cc1cc(-c2n[nH]c3ncc(-c4ccc5c(c4)CC[C@@H](N4CCCC4)CC5)cc23)cc(C)c1C(N)=O [Example 49] too.
Response: < 100 nM

Request: Now give it for CC(C)(O)c1ccc(-c2n[nH]c3ncc(-c4ccc5c(c4)CC4CCC(C5)C4N4CCCC4)cc23)cc1Cl (centres unmarked) [Example 61] too.
Response: > 1000 nM

Request: Now give it for Cc1cc(-c2n[nH]c3ncc(-c4ccc5c(c4)CCN(C4CC4)CC5)cc23)ccc1C(=O)N1CCNCC1 [Example 119] too.
Response: 100 to 1000 nM

Request: Now give it for C[C@@H]1CCCN1C1CCc2ccc(-c3cnc4[nH]nc(-c5ccc(C6(O)CCOC6)c(Cl)c5)c4c3)cc2CC1 (some centres unmarked) [Example 63] too.
Response: < 100 nM

Request: Now give it for Cc1cc(-c2n[nH]c3ncc(-c4ccc5c(c4)CCC(N4CCCC4)CC5)cc23)ccc1C(=O)N1CCNCC1 (centres unmarked) [Example 47] too.
Response: < 100 nM

Request: Now give it for Cc1cc(-c2n[nH]c3ncc(-c4ccc5c(c4)CC[C@@H](N4CCCC4)CC5)cc23)cc(C)c1C(=O)N1CCNCC1 [Example 55] too.
Response: < 100 nM

Request: Now give it for CC(C)(O)c1ccc(-c2c[nH]c3ncc(-c4ccc5c(c4)CCC(N4CCCC4)CC5)cc23)cc1Cl (centres unmarked) [Example 106] too.
Response: 100 to 1000 nM

Request: Now give it for C[C@@H]1CCCN1C1(C)CCc2ccc(-c3cnc4[nH]nc(-c5ccc(C(N)=O)c(F)c5)c4c3)cc2CC1 (some centres unmarked) [Example 52] too.
Response: < 100 nM

Request: Now give it for CC(C)(O)c1ccc(-c2n[nH]c3ncc(-c4ccc5c(c4)CCN(C4CCCC4)CC5)cc23)cn1 [Example 10] too.
Response: 100 to 1000 nM

---

The entries below are paired with their reported pIC50.
Biological target: human TYRO3 (Homo sapiens)
Sequence (Q06418 41-890): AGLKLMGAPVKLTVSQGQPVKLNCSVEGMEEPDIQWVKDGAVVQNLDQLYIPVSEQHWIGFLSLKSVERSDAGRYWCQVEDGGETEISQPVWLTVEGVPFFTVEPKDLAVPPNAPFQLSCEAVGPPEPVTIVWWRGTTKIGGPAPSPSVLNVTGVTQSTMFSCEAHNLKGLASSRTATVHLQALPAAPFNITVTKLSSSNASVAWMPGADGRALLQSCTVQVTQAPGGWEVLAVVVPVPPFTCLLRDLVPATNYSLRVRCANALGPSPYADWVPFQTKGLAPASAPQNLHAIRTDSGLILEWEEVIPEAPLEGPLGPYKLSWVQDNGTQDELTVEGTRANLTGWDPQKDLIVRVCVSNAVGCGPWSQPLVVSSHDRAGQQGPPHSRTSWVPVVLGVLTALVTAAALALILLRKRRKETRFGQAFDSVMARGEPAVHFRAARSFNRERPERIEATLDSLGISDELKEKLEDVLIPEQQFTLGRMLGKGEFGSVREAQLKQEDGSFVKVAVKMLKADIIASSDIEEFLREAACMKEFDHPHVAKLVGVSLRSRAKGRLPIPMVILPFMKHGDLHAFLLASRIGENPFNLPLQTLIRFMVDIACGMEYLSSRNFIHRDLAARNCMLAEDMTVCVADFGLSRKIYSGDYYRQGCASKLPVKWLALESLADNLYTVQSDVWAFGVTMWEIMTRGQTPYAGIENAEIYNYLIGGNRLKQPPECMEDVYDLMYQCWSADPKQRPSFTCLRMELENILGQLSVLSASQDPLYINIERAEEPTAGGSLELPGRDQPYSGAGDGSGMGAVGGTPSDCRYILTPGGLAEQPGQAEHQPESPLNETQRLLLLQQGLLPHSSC
pIC50: −log10 of the molar value.

compound | pIC50
C[C@@H]1CCCN1C1CCc2ccc(-c3cnc4[nH]nc(-c5ccc(S(C)(=O)=O)cc5)c4c3)cc2CC1 (stereo partly shown) | > 7.00
C[C@@H]1CCCN1C1(C)CCc2ccc(-c3cnc4[nH]nc(-c5ccc(C(=O)N6CCCC6)cc5)c4c3)cc2CC1 (stereo partly shown) | < 6.00
C[C@@H]1CCCN1C1(C)CCc2ccc(-c3cnc4[nH]nc(-c5ccc(S(=O)(=O)N6CCC6)cc5)c4c3)cc2CC1 (stereo partly shown) | > 7.00
C[C@@H]1CCCN1C1(C)CCc2ccc(-c3cnc4[nH]nc(-c5ccc(C(C)(C)O)c(Cl)c5)c4c3)cc2CC1 (stereo partly shown) | 6.00 to 7.00

Request: Look at this compound and give its reported pIC50. COCCNC(=O)c1ccc(-c2n[nH]c3ncc(-c4ccc5c(c4)CCC(C)(N4CCC[C@H]4C)CC5)cc23)cc1 (stereo partly shown)
Response: 6.00 to 7.00

Request: Now give it for NC(=O)c1ccc(-c2n[nH]c3ncc(-c4ccc5c(c4)CCC(N4CCCC4)CC5)cc23)cc1F (stereo not shown) too.
Response: > 7.00

Request: Now give it for C[C@@H]1CCCN1C1(C)CCc2ccc(-c3cnc4[nH]nc(-c5ccc(C(=O)NC6CCOCC6)cc5)c4c3)cc2CC1 (stereo partly shown) too.
Response: 6.00 to 7.00

Request: Now give it for CC1(N2CCOCC2)CCc2ccc(-c3cnc4[nH]nc(-c5ccc(S(=O)(=O)C6CC6)cc5)c4c3)cc2CC1 (stereo not shown) too.
Response: < 6.00

Request: Now give it for CC(C)(O)c1ccc(-c2n[nH]c3ncc(-c4cc5c(cn4)CCC(N4CCCC4)CC5)cc23)cc1Cl (stereo not shown) too.
Response: > 7.00

Request: Now give it for C[C@H]1CCCN1C1CCc2ccc(-c3cnc4[nH]nc(-c5ccc(S(=O)(=O)C6CC6)cc5)c4c3)cc2CC1 (stereo partly shown) too.
Response: 6.00 to 7.00

Request: Now give it for CC(C)(O)c1ccc(-c2n[nH]c3ncc(-c4ccc5c(c4)CC4CCC(C5)C4N4CCCC4)cc23)cc1Cl (stereo not shown) too.
Response: < 6.00

Request: Now give it for C[C@@H]1CCCN1C1CCc2ccc(-c3cnc4[nH]nc(-c5ccc(C6(O)CCC6)c(Cl)c5)c4c3)cc2CC1 (stereo partly shown) too.
Response: 6.00 to 7.00

Request: Now give it for CS(=O)(=O)N1CCC(c2n[nH]c3ncc(-c4ccc5c(c4)CCC(N4CCCC4)CC5)cc23)CC1 (stereo not shown) too.
Response: 6.00 to 7.00

Request: Now give it for O=C([C@@H]1CCCN1)N1CCc2ccc(-c3cnc4[nH]nc(-c5ccc(S(=O)(=O)C6CC6)cc5)c4c3)cc2CC1 too.
Response: 6.00 to 7.00

Request: Now give it for CC1(N2CCc3ccc(-c4cnc5[nH]nc(-c6ccc(S(=O)(=O)C7CC7)cc6)c5c4)cc3CC2)CCCC1 too.
Response: 6.00 to 7.00

Request: Now give it for C[C@@H]1CCCN1C1CCc2ccc(-c3cnc4[nH]nc(-c5cnc(C(C)(C)O)c(Cl)c5)c4c3)cc2CC1 (stereo partly shown) too.
Response: 6.00 to 7.00

Request: Now give it for C[C@H]1CCCN1C1(C)CCc2ccc(-c3cnc4[nH]nc(-c5ccc(S(=O)(=O)C6CC6)cc5)c4c3)cc2CC1 (stereo partly shown) too.
Response: > 7.00

Request: Now give it for CC1(N2CCC2)CCc2ccc(-c3cnc4[nH]nc(-c5ccc(S(=O)(=O)C6CC6)cc5)c4c3)cc2CC1 (stereo not shown) too.
Response: 6.00 to 7.00

Request: Now give it for CC1(N2CCC[C@H]2CO)CCc2ccc(-c3cnc4[nH]nc(-c5ccc(S(=O)(=O)C6CC6)cc5)c4c3)cc2CC1 (stereo partly shown) too.
Response: 6.00 to 7.00

This collection of values is drawn from patent US20240246967A1.
